# SUBJECT OF TEST: TAAR5 (Homo sapiens)
# Sequence (O14804 1-337): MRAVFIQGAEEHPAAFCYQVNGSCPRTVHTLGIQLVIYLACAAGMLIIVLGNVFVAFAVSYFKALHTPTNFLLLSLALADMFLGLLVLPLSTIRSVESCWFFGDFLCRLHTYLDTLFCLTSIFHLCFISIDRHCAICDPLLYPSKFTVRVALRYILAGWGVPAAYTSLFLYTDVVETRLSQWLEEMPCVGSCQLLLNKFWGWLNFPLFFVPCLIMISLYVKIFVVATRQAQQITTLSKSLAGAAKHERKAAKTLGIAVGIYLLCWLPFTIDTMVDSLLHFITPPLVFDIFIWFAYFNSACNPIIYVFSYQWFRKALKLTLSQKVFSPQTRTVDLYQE
# MEASUREMENT DESCRIPTION: Antagonist screen of odor library on TAAR5 with agonist TMA (Dual-Glo luciferase assay, Hana3A cells)
# Assay type: cell-based
# Design: TAAR open reading frames were amplified from pooled human genomic DNA using Phusion polymerase and subcloned into a pCI expression vector; Rho tag (first 20 residues of human rhodopsin); expressed in transfected cells; host or cells: Hana3A cells
# CONDITIONS USED: inhibition of TMA/TAAR5 response; test odor at 30 μM; TMA at EC80; read-out: Percent Inhibition
Could you label it true if measured inhibition at 30 µM is 80% or higher, and false otherwise?

Here's what some known entries look like.
O=C(Cc1ccccc1)Cc1ccccc1 [1,3-Diphenyl-2-propanone] : false
O=C1CCCC=CCCCCCCCCCC1 [velvione, 5-Cyclohexadecen-1-one] : false
Cc1occc1SSc1ccoc1C [Bis(2-Methyl-3-furyl) disulfide] : true
O=CC1CCCCCC1 [Cycloheptanecarbaldehyde] : false
OC1CSC(O)CS1 (stereo not shown) [2,5-Dihydroxy-1,4-dithiane] : false

[in] Please indicate if the recorded inhibition at 30 µM for C/C=C(\C=O)c1ccccc1 [2-Phenyl-2-butenal] meets or exceeds 80%.
[out] false

[in] Confirm if inhibition at 30 µM reported for the compound CCCCCCCCCCCCCC(=O)O [myristic acid] is 80% or above.
[out] false

[in] Dear colleague, could you confirm whether O=C(OCc1ccccc1)c1ccccc1 [Benzyl benzoate] has inhibition at 30 µM at or above 80%?
[out] true

[in] Kindly determine if inhibition at 30 µM recorded for O=C(OCCc1ccccc1)c1ccccc1O [Phenethyl salicylate] is above or exactly 80%.
[out] true

[in] Is inhibition at 30 µM for O=C(Cc1ccccc1)OCCc1ccccc1 [Phenethyl phenylacetate] at or above 80%?
[out] true

Reference source for all entries: patent US20180021467A1
